# assay.system: RUNX1 (UniProt Q01196)
# Sequence (Q01196 whole entry): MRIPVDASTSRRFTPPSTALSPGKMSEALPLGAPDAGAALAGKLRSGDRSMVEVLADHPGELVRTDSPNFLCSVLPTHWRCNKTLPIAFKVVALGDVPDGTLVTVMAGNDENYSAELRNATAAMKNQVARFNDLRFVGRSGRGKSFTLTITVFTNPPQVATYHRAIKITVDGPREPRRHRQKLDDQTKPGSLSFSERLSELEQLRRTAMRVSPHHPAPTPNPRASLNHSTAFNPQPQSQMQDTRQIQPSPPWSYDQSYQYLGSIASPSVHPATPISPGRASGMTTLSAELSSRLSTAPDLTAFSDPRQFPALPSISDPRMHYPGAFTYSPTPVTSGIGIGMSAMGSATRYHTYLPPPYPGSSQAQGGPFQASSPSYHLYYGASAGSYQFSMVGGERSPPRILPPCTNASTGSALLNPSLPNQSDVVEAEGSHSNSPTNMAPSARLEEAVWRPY
# assay.protocol: RUNX1 binding intensity (PBM fluorescence), RUNX1 alone (arbitrary fluorescence units); higher = stronger binding
# test.parameters: RUNX1 concentration 2 nM; ETS1 concentration 0 nM
Over roughly 4,000 sequences, “arbitrary fluorescence units” has its median near 830; the highest 2% begin near 6,500. This excerpt belongs to a sample that is enriched for the highest values.
In this section, each of the sequences is paired with its reported RUNX1 binding intensity.

# biosequence, assay.system, RUNX1 binding intensity
data = [
    ("GCCCCTCTTTCTGACTCACACAACCGCCTCTAGTCT", "RUNX1 (UniProt Q01196)", 1540),
]

Request: Fill in: RUNX1 binding intensity of GGTCTGCGGCGCGCGGGATGCTGGGCAATGTAGTTT is ___
Response: 784

Request: Another sequence to look at: TCCTGTGGCTTTGGGGTTCCTTGTTGCCTGGGCTGG
Response: 1110

----------
# assay.system: RUNX1 (UniProt Q01196)
# assay.protocol: RUNX1 binding intensity (PBM fluorescence), RUNX1 alone (arbitrary fluorescence units); higher = stronger binding
# test.parameters: RUNX1 concentration 2 nM; ETS1 concentration 0 nM
The full ranking holds about 4,000 sequences; the median of “arbitrary fluorescence units” is about 830, and the highest 2% start at about 6,500. The sample as a whole holds a higher share of the highest values than the screen did.
In this section, each of the sequences is paired with its reported RUNX1 binding intensity.

Example results:
# biosequence, RUNX1 binding intensity
measured = [
    ("AAAACCACATTGCCTGTGCTGCAGGCTGGAAAGCTG", 879),
    ("TCCACAGCCGGTTTCGGCCGGTTCCCACAAGCCCCT", 909),
    ("GACAGTTTTCGGGCCTAGTTTGCGGCTGCTCCTGCC", 891),
]

Read the next record carefully.
Request: Fill in: RUNX1 binding intensity of CCGGGGTAAACCACGACACGACTCCCTGCCGTGTGG is ___
Response: 886

----------
# assay.system: RUNX1 (UniProt Q01196)
# assay.protocol: RUNX1 binding intensity (PBM fluorescence), RUNX1 alone (arbitrary fluorescence units); higher = stronger binding
# test.parameters: RUNX1 concentration 2 nM; ETS1 concentration 0 nM
The full ranking holds about 4,000 sequences; the median of “arbitrary fluorescence units” is about 830, and the highest 2% start at about 6,500. The list comes from a sample in which the highest values are over-represented; it also holds close analogues and randomly drawn sequences.
measurement.type: RUNX1 binding intensity
Give your answer as a number; write no unit.

Example results:
# biosequence, RUNX1 binding intensity
data = [
    ("CCGAGAAGTGGAACCGCCAGGCGGAGGGGGCGGAGT", 767),
    ("ACTCTGCGGCCCAGCTGCTTCTGTGCACAGGCAATA", 791),
    ("TATTCAGCAGCAAAGGAGAGAGTCTGTGGTATCTGC", 708),
    ("GTATGGGAGGTGATCTGGCTGCAAACCGCAAGAGAG", 8250),
]

Read the next record carefully.
Request: Fill in: RUNX1 binding intensity of TTGTGGTAGGGAAATCCACTTACCCCCTCCTCATGT is ___
Response: 808
